// reported pIC50 for each item listed
Test: Antagonism of calmodulin dependent cAMP Phosphodiesterase
Assay type: functional
pIC50: −log10 of the molar value.
valueKind: pIC50

structureSmiles	valueKind	valueMeasured
CC/C(=C(\c1ccc(I)cc1)c1ccc(OCCN2CCCC2)cc1)c1ccccc1	pIC50	5.82
CC/C(=C(\c1ccc(I)cc1)c1ccc(OCCN2CCCC2)cc1)c1ccc(O)cc1	pIC50	5.74
CC/C(=C(\c1ccc(I)cc1)c1ccc(OCCN2CCCC2)cc1)c1ccc(N)cc1	pIC50	5.59
CC/C(=C(/c1ccc(I)cc1)c1ccc(OCCN2CCCC2)cc1)c1ccc(O)cc1	pIC50	5.66
CC/C(=C(\c1ccc(I)cc1)c1ccc(OCCN2CCCC2)cc1)c1ccc(I)cc1	pIC50	5.30
